- test.target: purified recombinant HIV RT (Human immunodeficiency virus type 1 group M subtype B, UniProt P04585)
- Construct: against purified recombinant HIV RT using the cell-free Quan-T-RT system
- experiment.description: Purified recombinant HIV RT inhibition, cell-free Quan-T-RT scintillation proximity assay
- Type: biochemical
- test.conditions: read-out: IC50 rRT; Table 2; recombinant HIV reverse transcriptase
pIC50: −log10 of the molar value.
measured.quantity: pIC50

{"columns": ["mol", "meas.value"],
 "data": [
  ["COc1ccc(CCNC(=S)Nc2ccc(Br)cn2)cc1", 6.05],
  ["S=C(NCCc1ccc(Cl)cc1)Nc1ccc(Br)cn1", 5.60]
]}

----------
- test.target: purified recombinant HIV RT (Human immunodeficiency virus type 1 group M subtype B, UniProt P04585)
- Construct: against purified recombinant HIV RT using the cell-free Quan-T-RT system
- experiment.description: Purified recombinant HIV RT inhibition, cell-free Quan-T-RT scintillation proximity assay
- Format: biochemical
- test.conditions: Table 2; recombinant HIV reverse transcriptase; read-out: IC50 rRT
measured.quantity: IC50 (µM)

{"columns": ["compound", "measured.quantity", "reported.relation", "meas.value"],
 "data": [
  ["O=[N+]([O-])c1ccc(CCNC(=S)Nc2ccc(Br)cn2)cc1 [HI-231]", "IC50", ">", 100],
  ["Fc1ccc(CCNC(=S)Nc2ccc(Br)cn2)cc1 [HI-242]", "IC50", "=", 6.4]
]}

----------
- Test system: HIV-1 strain HTLVIIIB
- experiment.description: Inhibition of HIV-1 HTLVIIIB replication in PBMC (p24 antigen EIA)
- Format: cell-based
- test.conditions: Human immunodeficiency virus 1, PBMC, read-out: IC50 HTLV mB
pIC50: −log10 of the molar value.

{"columns": ["compound", "pIC50"],
 "data": [
  ["Oc1ccc(CCNC(=S)Nc2ccc(Br)cn2)cc1 [HI-256]", 5.51],
  ["Cc1ccc(CCNC(=S)Nc2ccc(Br)cn2)cc1 [HI-244]", 8.15]
]}

----------
- System: multidrug resistant HIV-1 strain RT-MDR with a V106A mutation
- experiment.description: microbe, parasite or virus in culture
- Type: cell-based
- test.conditions: Human immunodeficiency virus 1, PBMC, read-out: IC50 RT-MDR
measured.quantity: IC50

{"columns": ["mol", "measured.quantity", "meas.value"],
 "data": [
  ["S=C(NCCc1ccc(Br)cc1)Nc1ccc(Br)cn1", "IC50", "> 1 nM"],
  ["Cc1ccc(CCNC(=S)Nc2ccc(Br)cn2)cc1", "IC50", "> 1 nM"]
]}

----------
CC50: recorded values
- experiment.description: Microculture tetrazolium Assay (MTA, XTT) for cytotoxicity
- Assay type: cell-based, human
- test.conditions: human, PBMC; Table 1; cytotoxicity, MTA

{"columns": ["mol", "CC50"],
 "data": [
  ["Cc1ccc(CCNC(=S)Nc2ccc(Br)cn2)cc1", "71 µM"],
  ["S=C(NCCc1ccc(Br)cc1)Nc1ccc(Br)cn1", "> 100 µM"],
  ["Oc1ccc(CCNC(=S)Nc2ccc(Br)cn2)cc1", "> 100 µM"],
  ["COc1ccc(CCNC(=S)Nc2ccc(Br)cn2)cc1", "> 100 µM"]
]}

----------
melting point: recorded values

{"columns": ["mol", "melting point"],
 "data": [
  ["S=C(NCCc1ccc(Br)cc1)Nc1ccc(Br)cn1", "184 to 185 °C"],
  ["COc1ccc(CCNC(=S)Nc2ccc(Br)cn2)cc1", "178 to 179 °C"],
  ["Cc1ccc(CCNC(=S)Nc2ccc(Br)cn2)cc1", "159 to 162 °C"],
  ["S=C(NCCc1ccc(Cl)cc1)Nc1ccc(Br)cn1", "180 to 183 °C"]
]}

----------
IC50: recorded values
- test.target: purified recombinant HIV RT (Human immunodeficiency virus type 1 group M subtype B, UniProt P04585)
- Construct: against purified recombinant HIV RT using the cell-free Quan-T-RT system
- experiment.description: Purified recombinant HIV RT inhibition, cell-free Quan-T-RT scintillation proximity assay
- Type: biochemical

{"columns": ["mol", "IC50 / nM"],
 "data": [
  ["S=C(NCCc1ccc(Br)cc1)Nc1ccc(Br)cn1", 900],
  ["COc1ccc(CCNC(=S)Nc2ccc(Br)cn2)cc1", 900],
  ["S=C(NCCc1ccc(Cl)cc1)Nc1ccc(Br)cn1", 2500],
  ["Oc1ccc(CCNC(=S)Nc2ccc(Br)cn2)cc1", 87700],
  ["Cc1ccc(CCNC(=S)Nc2ccc(Br)cn2)cc1", 100]
]}

----------
- Test system: PBMC
- experiment.description: Microculture tetrazolium Assay (MTA, XTT) for cytotoxicity
- Type: cell-based, human
- test.conditions: Table 1; cytotoxicity, MTA

{"columns": ["compound", "CC50"],
 "data": [
  ["S=C(NCCc1ccccn1)Nc1ccc(Br)cn1 [Trovirdine, reference compound]", "> 100 µM"]
]}
